For each of the compounds below, state its melting point.

Take each entry in turn and give its melting point.
1. O=C(O)C(=O)Nc1scc(-c2ccccc2)c1C(=O)O (hydrate or solvate)
2. O=C(O)C(=O)Nc1sc(-c2ccccc2)cc1C(=O)O
3. COc1ccc(Oc2ccc(-c3cc(NC(=O)C(=O)O)c(C(=O)O)s3)cc2)cc1 (hydrate or solvate)
4. O=C(O)C(=O)Nc1scc(C2CCCCC2)c1C(=O)O (hydrate or solvate)

[out]
["196 to 198 °C", "238 to 240 °C", "215 °C (dec.)", "> 250 °C"]

Could you report melting point for every entry in the following list?
1. O=C(O)C(=O)Nc1nn(Cc2ccccc2)cc1C(=O)O (hydrate or solvate)
2. O=C(CN1C(=O)c2ccccc2C1=O)NCc1cc(C(=O)O)c(NC(=O)C(=O)O)s1
3. O=C(O)C(=O)Nc1sc(Cc2ccccc2)cc1C(=O)O

[out]
["189 to 191 °C", "243 to 244 °C (dec.)", "230 to 231 °C"]

Cited source for all entries: patent US20050119332A1
